- system-name: DPP-IV activity in rat plasma (Rattus norvegicus, UniProt P14740)
- Construct: from tissue; host or cells: rat plasma
- Sequence (P14740 38-767 limits assumed): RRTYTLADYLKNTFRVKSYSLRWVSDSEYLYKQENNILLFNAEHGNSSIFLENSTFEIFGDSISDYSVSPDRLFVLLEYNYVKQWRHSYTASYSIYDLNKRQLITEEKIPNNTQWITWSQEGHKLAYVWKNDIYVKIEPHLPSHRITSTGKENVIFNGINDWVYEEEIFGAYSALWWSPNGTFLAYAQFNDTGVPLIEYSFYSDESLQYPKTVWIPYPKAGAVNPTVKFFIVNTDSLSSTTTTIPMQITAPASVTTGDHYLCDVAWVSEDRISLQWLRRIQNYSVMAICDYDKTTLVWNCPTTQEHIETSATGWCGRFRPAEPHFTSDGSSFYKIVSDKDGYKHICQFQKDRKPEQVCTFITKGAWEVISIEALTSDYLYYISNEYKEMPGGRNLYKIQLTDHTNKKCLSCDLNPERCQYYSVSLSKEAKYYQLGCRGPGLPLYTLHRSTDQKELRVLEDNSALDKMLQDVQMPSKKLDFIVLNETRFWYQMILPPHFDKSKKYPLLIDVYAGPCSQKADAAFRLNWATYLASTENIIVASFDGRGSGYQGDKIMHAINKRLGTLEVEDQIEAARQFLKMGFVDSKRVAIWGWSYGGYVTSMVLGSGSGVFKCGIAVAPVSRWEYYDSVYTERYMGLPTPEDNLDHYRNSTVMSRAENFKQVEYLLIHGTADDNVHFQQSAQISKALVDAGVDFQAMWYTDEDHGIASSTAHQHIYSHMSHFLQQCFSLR
- assay-notes: Rat plasma DPP-IV assay
- Assay type: biochemical
- measurement-setup: substrate H-Gly-Pro-AMC
reported-endpoint: IC50 (nM)
The response must be a number in nM with no trailing unit.

Would you kindly share the measured IC50 for CC(C)(CNc1ncc(Cl)cc1Cl)NCC(=O)N1CCC[C@H]1C#N [Ex. 2F] ?
37

Would you kindly share the measured IC50 for N#C[C@@H]1CCCN1C(=O)CNC1CCN(S(=O)(=O)c2ccc(C(F)(F)F)cc2)CC1 [Ex. 4C] ?
48

Would you kindly share the measured IC50 for N#C[C@@H]1CCCN1C(=O)CN[C@H]1CC[C@H](NS(=O)(=O)c2ccc(C(F)(F)F)cc2)CC1 [Ex. 2Z] ?
88

Would you kindly share the measured IC50 for CCCCCC12CCC(NCC(=O)N3CCC[C@H]3C#N)(CC1)CC2 [Ex. 2DD] ?
38

Would you kindly share the measured IC50 for N#C[C@@H]1CCCN1C(=O)CN[C@H]1CC[C@H](NC(=O)c2ccc(F)cc2)CC1 [Ex. 5] ?
4

Would you kindly share the measured IC50 for CC(C)(CNc1cc(C(F)(F)F)ccn1)NCC(=O)N1CCC[C@H]1C#N [Ex. 2E] ?
19

Would you kindly share the measured IC50 for N#C[C@@H]1CCCN1C(=O)CN[C@H]1CC[C@H](Nc2ncccc2C(F)(F)F)CC1 [Ex. 2P] ?
11

Would you kindly share the measured IC50 for N#C[C@@H]1CCCN1C(=O)CNC1CCN(c2nc(-c3ccc(Cl)cc3)cs2)CC1 [Ex. 2LL] ?
123

====

- system-name: DPP-IV activity from human colonic carcinoma cell (Caco-2) extracts (Homo sapiens)
- Construct: Cell extract is prepared from cells solubilized in 10 mM Tris HCl; host or cells: Caco-2, differentiated to induce DPP-IV expression
- Sequence (P27487 whole entry): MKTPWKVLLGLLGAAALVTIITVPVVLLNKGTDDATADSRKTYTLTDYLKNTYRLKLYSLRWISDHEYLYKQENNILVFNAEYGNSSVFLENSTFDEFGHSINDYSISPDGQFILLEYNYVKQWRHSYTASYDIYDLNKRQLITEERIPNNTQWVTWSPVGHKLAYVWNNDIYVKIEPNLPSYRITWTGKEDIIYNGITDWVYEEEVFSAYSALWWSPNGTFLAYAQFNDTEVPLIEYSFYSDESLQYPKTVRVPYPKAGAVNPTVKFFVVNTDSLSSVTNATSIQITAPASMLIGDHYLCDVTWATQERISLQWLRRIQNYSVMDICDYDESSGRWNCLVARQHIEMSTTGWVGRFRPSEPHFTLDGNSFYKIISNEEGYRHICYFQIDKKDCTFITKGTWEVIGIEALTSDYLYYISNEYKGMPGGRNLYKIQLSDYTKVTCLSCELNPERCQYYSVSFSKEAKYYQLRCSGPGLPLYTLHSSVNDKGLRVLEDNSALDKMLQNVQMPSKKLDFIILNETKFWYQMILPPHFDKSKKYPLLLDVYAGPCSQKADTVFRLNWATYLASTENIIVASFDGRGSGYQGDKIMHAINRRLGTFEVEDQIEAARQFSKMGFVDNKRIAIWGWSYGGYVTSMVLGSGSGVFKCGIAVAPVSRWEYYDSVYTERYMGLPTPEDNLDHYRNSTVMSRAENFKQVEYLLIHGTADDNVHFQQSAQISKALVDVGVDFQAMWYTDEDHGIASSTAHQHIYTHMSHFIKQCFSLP
- assay-notes: Caco-2 DPP-IV Assay
- Assay type: biochemical
- measurement-setup: Caco-2 cell extract, substrate H-Ala-Pro-pNA, 8-point dose-response
reported-endpoint: IC50 (nM)
The response must be a number in nM with no trailing unit.

Please provide the recorded IC50 for CC(C)(CNc1cc(C(F)(F)F)ccn1)NCC(=O)N1CCC[C@H]1C#N , tested on DPP-IV activity from human colonic carcinoma cell (Caco-2) extracts (Homo sapiens).
27

Please provide the recorded IC50 for N#C[C@@H]1CCCN1C(=O)CNC1CCN(S(=O)(=O)c2ccccc2)CC1 , tested on DPP-IV activity from human colonic carcinoma cell (Caco-2) extracts (Homo sapiens).
114

Please provide the recorded IC50 for N#C[C@@H]1CCCN1C(=O)CN[C@H]1CC[C@H](Oc2cccc(Cl)c2)CC1 , tested on DPP-IV activity from human colonic carcinoma cell (Caco-2) extracts (Homo sapiens).
18

Please provide the recorded IC50 for CC(C)(CNc1ncccc1Cl)NCC(=O)N1CCC[C@H]1C#N , tested on DPP-IV activity from human colonic carcinoma cell (Caco-2) extracts (Homo sapiens).
44

Please provide the recorded IC50 for CC(C)N(C(=O)N1CCC(NCC(=O)N2CCC[C@H]2C#N)CC1)C(C)C , tested on DPP-IV activity from human colonic carcinoma cell (Caco-2) extracts (Homo sapiens).
94

Please provide the recorded IC50 for CC(C)(CNC(=O)c1ccc(Cl)cc1)NCC(=O)N1CCC[C@H]1C#N , tested on DPP-IV activity from human colonic carcinoma cell (Caco-2) extracts (Homo sapiens).
80

Please provide the recorded IC50 for N#C[C@@H]1CCCN1C(=O)CN[C@H]1CC[C@H](NS(=O)(=O)c2ccc(C(F)(F)F)cc2)CC1 , tested on DPP-IV activity from human colonic carcinoma cell (Caco-2) extracts (Homo sapiens).
66

Please provide the recorded IC50 for N#C[C@@H]1CCCN1C(=O)CNC1CCN(C(=O)c2ccc(Cl)cc2)CC1 , tested on DPP-IV activity from human colonic carcinoma cell (Caco-2) extracts (Homo sapiens).
35

Please provide the recorded IC50 for N#C[C@@H]1CCCN1C(=O)CN[C@H]1CC[C@H](NC(=O)c2ccc(F)cc2)CC1 , tested on DPP-IV activity from human colonic carcinoma cell (Caco-2) extracts (Homo sapiens).
36

Please provide the recorded IC50 for Cc1ccc(C(=O)NCC(C)(C)NCC(=O)N2CCC[C@H]2C#N)cc1 , tested on DPP-IV activity from human colonic carcinoma cell (Caco-2) extracts (Homo sapiens).
99

Please provide the recorded IC50 for N#C[C@@H]1CCCN1C(=O)CNC1CCN(c2nc(-c3ccc(Cl)cc3)cs2)CC1 , tested on DPP-IV activity from human colonic carcinoma cell (Caco-2) extracts (Homo sapiens).
61

Please provide the recorded IC50 for N#C[C@@H]1CCCN1C(=O)CNC1CCN(c2nc(-c3ccccc3)cs2)CC1 , tested on DPP-IV activity from human colonic carcinoma cell (Caco-2) extracts (Homo sapiens).
28

Please provide the recorded IC50 for CC(C)(Cc1ccc(F)cc1)NCC(=O)N1CCC[C@H]1C#N , tested on DPP-IV activity from human colonic carcinoma cell (Caco-2) extracts (Homo sapiens).
19

Please provide the recorded IC50 for N#C[C@@H]1CCCN1C(=O)CN[C@H]1CC[C@H](Oc2cccc(C(F)(F)F)c2)CC1 , tested on DPP-IV activity from human colonic carcinoma cell (Caco-2) extracts (Homo sapiens).
22

Please provide the recorded IC50 for CC(C)(CNC(=O)Nc1ccc(Cl)cc1)NCC(=O)N1CCC[C@H]1C#N , tested on DPP-IV activity from human colonic carcinoma cell (Caco-2) extracts (Homo sapiens).
56

Please provide the recorded IC50 for N#C[C@@H]1CCCN1C(=O)CN[C@H]1CC[C@H](NS(=O)(=O)c2ccc(Cl)cc2)CC1 , tested on DPP-IV activity from human colonic carcinoma cell (Caco-2) extracts (Homo sapiens).
30

Please provide the recorded IC50 for CC(C)N(C(=O)NCC(C)(C)NCC(=O)N1CCC[C@H]1C#N)C(C)C , tested on DPP-IV activity from human colonic carcinoma cell (Caco-2) extracts (Homo sapiens).
41

Please provide the recorded IC50 for N#C[C@@H]1CCCN1C(=O)CN[C@H]1CC[C@H](Nc2ncccc2C(F)(F)F)CC1 , tested on DPP-IV activity from human colonic carcinoma cell (Caco-2) extracts (Homo sapiens).
15

Please provide the recorded IC50 for N#C[C@@H]1CCCN1C(=O)CNC1CCN(C(=O)Nc2ccc(Cl)cc2)CC1 , tested on DPP-IV activity from human colonic carcinoma cell (Caco-2) extracts (Homo sapiens).
44

Please provide the recorded IC50 for N#C[C@@H]1CCCN1C(=O)CN[C@H]1CC[C@H](NS(=O)(=O)c2cccs2)CC1 , tested on DPP-IV activity from human colonic carcinoma cell (Caco-2) extracts (Homo sapiens).
56

Please provide the recorded IC50 for N#C[C@@H]1CCCN1C(=O)CNC1CCN(S(=O)(=O)c2ccc(C(F)(F)F)cc2)CC1 , tested on DPP-IV activity from human colonic carcinoma cell (Caco-2) extracts (Homo sapiens).
83

Please provide the recorded IC50 for CC(C)(CNc1ccc(C(F)(F)F)cn1)NCC(=O)N1CCC[C@H]1C#N , tested on DPP-IV activity from human colonic carcinoma cell (Caco-2) extracts (Homo sapiens).
5

Please provide the recorded IC50 for COc1ccc(-c2csc(N3CCC(NCC(=O)N4CCC[C@H]4C#N)CC3)n2)cc1 , tested on DPP-IV activity from human colonic carcinoma cell (Caco-2) extracts (Homo sapiens).
22

Please provide the recorded IC50 for CC(C)(CNc1ncc(Cl)cc1Cl)NCC(=O)N1CCC[C@H]1C#N , tested on DPP-IV activity from human colonic carcinoma cell (Caco-2) extracts (Homo sapiens).
45

Please provide the recorded IC50 for N#C[C@@H]1CCCN1C(=O)CN[C@H]1CC[C@H](NC(=O)c2ccc(Cl)cc2)CC1 , tested on DPP-IV activity from human colonic carcinoma cell (Caco-2) extracts (Homo sapiens).
31

Please provide the recorded IC50 for N#C[C@@H]1CCCN1C(=O)CN[C@H]1CC[C@H](Nc2nccc(C(F)(F)F)n2)CC1 , tested on DPP-IV activity from human colonic carcinoma cell (Caco-2) extracts (Homo sapiens).
8

Please provide the recorded IC50 for CCCCCC12CCC(NCC(=O)N3CCC[C@H]3C#N)(CC1)CC2 , tested on DPP-IV activity from human colonic carcinoma cell (Caco-2) extracts (Homo sapiens).
156

====

- system-name: DPP-IV activity in human plasma (Homo sapiens)
- Construct: from tissue; host or cells: human plasma
- Sequence (P27487 39-766 limits assumed): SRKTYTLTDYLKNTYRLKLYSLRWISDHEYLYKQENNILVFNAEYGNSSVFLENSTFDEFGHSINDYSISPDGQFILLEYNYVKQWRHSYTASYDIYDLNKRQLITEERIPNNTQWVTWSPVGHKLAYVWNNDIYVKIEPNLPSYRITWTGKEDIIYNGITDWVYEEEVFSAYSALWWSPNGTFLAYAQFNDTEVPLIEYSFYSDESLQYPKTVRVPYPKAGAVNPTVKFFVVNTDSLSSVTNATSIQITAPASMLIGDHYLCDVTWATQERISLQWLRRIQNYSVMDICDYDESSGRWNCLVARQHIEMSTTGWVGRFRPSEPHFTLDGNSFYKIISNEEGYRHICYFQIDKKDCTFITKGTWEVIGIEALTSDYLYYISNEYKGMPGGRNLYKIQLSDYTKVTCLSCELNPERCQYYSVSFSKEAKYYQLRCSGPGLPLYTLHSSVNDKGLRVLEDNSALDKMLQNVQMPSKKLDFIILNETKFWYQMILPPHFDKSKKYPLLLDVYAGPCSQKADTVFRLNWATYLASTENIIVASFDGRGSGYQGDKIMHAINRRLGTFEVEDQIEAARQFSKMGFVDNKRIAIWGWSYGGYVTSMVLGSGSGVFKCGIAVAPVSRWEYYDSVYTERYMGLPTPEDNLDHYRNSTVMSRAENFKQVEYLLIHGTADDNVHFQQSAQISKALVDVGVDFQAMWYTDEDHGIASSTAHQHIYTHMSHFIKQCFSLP
- assay-notes: Human plasma DPP-IV assay
- Format: biochemical
- measurement-setup: substrate H-Gly-Pro-AMC
Okay, here is how we bin by IC50: low bin (below 40 nM), mid bin (40 nM to below 70 nM), high bin (70 nM or more)

Kindly state the category for this compound: N#C[C@@H]1CCCN1C(=O)CNC1CCN(c2nc(-c3ccc(Cl)cc3)cs2)CC1
high bin

Kindly state the category for this compound: CC(C)N(C(=O)N1CCC(NCC(=O)N2CCC[C@H]2C#N)CC1)C(C)C
mid bin

Kindly state the category for this compound: N#C[C@@H]1CCCN1C(=O)CN[C@H]1CC[C@H](Nc2ncccc2C(F)(F)F)CC1
low bin

Kindly state the category for this compound: N#C[C@@H]1CCCN1C(=O)CN[C@H]1CC[C@H](NS(=O)(=O)c2ccc(C(F)(F)F)cc2)CC1
high bin

Kindly state the category for this compound: N#C[C@@H]1CCCN1C(=O)CN[C@H]1CC[C@H](Oc2cccc(C(F)(F)F)c2)CC1
low bin

Kindly state the category for this compound: CC(C)(CNC(=O)c1ccc(Cl)cc1)NCC(=O)N1CCC[C@H]1C#N
high bin

Kindly state the category for this compound: N#C[C@@H]1CCCN1C(=O)CNC1CCN(c2nc(-c3ccccc3)cs2)CC1
low bin

Kindly state the category for this compound: CC(C)(CNc1ccc(C(F)(F)F)cn1)NCC(=O)N1CCC[C@H]1C#N
mid bin

Kindly state the category for this compound: N#C[C@@H]1CCCN1C(=O)CN[C@H]1CC[C@H](NC(=O)c2ccc(Cl)cc2)CC1
low bin

Kindly state the category for this compound: CC(C)(CNc1ncccc1Cl)NCC(=O)N1CCC[C@H]1C#N
high bin

Kindly state the category for this compound: Cc1ccc(C(=O)NCC(C)(C)NCC(=O)N2CCC[C@H]2C#N)cc1
mid bin

Kindly state the category for this compound: N#C[C@@H]1CCCN1C(=O)CN[C@H]1CC[C@H](Nc2nccc(C(F)(F)F)n2)CC1
low bin

Kindly state the category for this compound: N#C[C@@H]1CCCN1C(=O)CNC1CCN(S(=O)(=O)c2ccccc2)CC1
high bin

Kindly state the category for this compound: N#C[C@@H]1CCCN1C(=O)CNC1CCN(C(=O)Nc2ccc(Cl)cc2)CC1
low bin

Kindly state the category for this compound: N#C[C@@H]1CCCN1C(=O)CNC1CCN(C(=O)c2ccc(Cl)cc2)CC1
high bin

Kindly state the category for this compound: CCCCCC12CCC(NCC(=O)N3CCC[C@H]3C#N)(CC1)CC2
mid bin

Kindly state the category for this compound: N#C[C@@H]1CCCN1C(=O)CN[C@H]1CC[C@H](Oc2cccc(Cl)c2)CC1
low bin

Kindly state the category for this compound: CC(C)(CNc1ncc(Cl)cc1Cl)NCC(=O)N1CCC[C@H]1C#N
mid bin

Kindly state the category for this compound: CC(C)(CNc1cc(C(F)(F)F)ccn1)NCC(=O)N1CCC[C@H]1C#N
low bin

Kindly state the category for this compound: CC(C)(CNC(=O)Nc1ccc(Cl)cc1)NCC(=O)N1CCC[C@H]1C#N
high bin

Kindly state the category for this compound: CC(C)(Cc1ccc(F)cc1)NCC(=O)N1CCC[C@H]1C#N
low bin

Kindly state the category for this compound: CC(C)N(C(=O)NCC(C)(C)NCC(=O)N1CCC[C@H]1C#N)C(C)C
high bin

Kindly state the category for this compound: N#C[C@@H]1CCCN1C(=O)CN[C@H]1CC[C@H](NS(=O)(=O)c2cccs2)CC1
low bin

Kindly state the category for this compound: N#C[C@@H]1CCCN1C(=O)CN[C@H]1CC[C@H](NS(=O)(=O)c2ccc(Cl)cc2)CC1
low bin

Kindly state the category for this compound: N#C[C@@H]1CCCN1C(=O)CN[C@H]1CC[C@H](NC(=O)c2ccc(F)cc2)CC1
low bin
